Experimental Target: S1PR2 (Homo sapiens)
Construct: expressed in transfected cells
Sequence (O95136 whole entry): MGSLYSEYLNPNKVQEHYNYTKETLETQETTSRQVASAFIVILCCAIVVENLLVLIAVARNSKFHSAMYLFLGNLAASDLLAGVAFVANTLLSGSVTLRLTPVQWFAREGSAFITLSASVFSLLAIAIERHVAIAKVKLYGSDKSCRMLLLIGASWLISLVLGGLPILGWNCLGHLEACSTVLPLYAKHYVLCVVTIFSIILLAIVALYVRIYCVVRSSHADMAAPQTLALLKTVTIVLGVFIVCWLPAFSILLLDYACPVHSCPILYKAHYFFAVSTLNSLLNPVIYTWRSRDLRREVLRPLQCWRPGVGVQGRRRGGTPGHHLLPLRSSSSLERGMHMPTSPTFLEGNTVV
Method Notes: S1PR2 binding assay (competition with radioactively labeled S1P, SpA)
Run Parameters: membranes from stable cell line over expressing S1PR2, SpA beads; read-out: S1P2 EC50 (nM), S1PR2 binding EC50
Below, each entry is listed with its recorded log10(EC50).
Endpoint Name: log10(EC50) (log10 of the value in nM)

> print(dat)
                                   molecule  recorded.measurement
1  CC(C(=O)O)n1nc(Cn2cc3cc(OCC4CC4)c(Cl)cc3n2)c2c(c1=O)CCCC2 (stereo not shown)                  1.35
2  CN(C)C(=O)CN(C)C(=O)Cn1nc(Cc2nc3cc(OCC(F)F)c(C#N)cc3[nH]2)c2ccccc2c1=O                  2.57
3  CC(O)(CNC(=O)Cn1nc(Cc2nc3cc(C#N)c(OCC(F)F)cc3[nH]2)c2ccccc2c1=O)C(F)(F)F (stereo not shown)                  1.80
4  COCCOc1cc2nc(Cc3nn(CC(=O)N4CCOCC4)c(=O)c4ccccc34)[nH]c2cc1C#N                  2.56
5  N#Cc1cc2[nH]c(Cc3nn(CC(=O)N4CCCC(O)C4)c(=O)c4ccccc34)nc2cc1OCC(F)F (stereo not shown)                  2.66
6  O=C(Cc1nn(Cc2nc3cc(OCC(F)F)c(F)cc3[nH]2)c2ccccc2c1=O)N1CCOCC1                  2.43
7  CC(C(=O)NS(C)(=O)=O)n1nc(Cc2nc3cc(OCC4CC4)c(Cl)cc3[nH]2)c2ccccc2c1=O (stereo not shown)                  2.89
